# Test system: VA patients with PTSD (PTSD symptoms, PTSD Checklist)
# protocol.text: TreeScan nested case-control study of medications associated with PTSD symptom improvement (PTSD Checklist) in VA records
# Assay type: in vivo, human
# measurement.setup: all patients in the overall sample
So basically: is EXP = Expected Cases under 400? Then Met. Not under? Then Not met.

Below, 9 molecules whose answers are already recorded.
molecule	target.of.assay	assigned.category
COc1ccc2[nH]cc(CCNC(C)=O)c2c1	VA patients with PTSD (PTSD symptoms, PTSD Checklist)	Not met
CN(C)CCCC1(c2ccc(F)cc2)OCc2cc(C#N)ccc21 (stereo not shown)	VA patients with PTSD (PTSD symptoms, PTSD Checklist)	Not met
COC[C@H]1C[C@@H](c2ncc(-c3ccc4c(c3)COc3cc5c(ccc6[nH]c([C@@H]7CC[C@H](C)N7C(=O)[C@@H](NC(=O)OC)C(C)C)nc65)cc3-4)[nH]2)N(C(=O)[C@H](NC(=O)OC)c2ccccc2)C1	VA patients with PTSD (PTSD symptoms, PTSD Checklist)	Met
[Li]	VA patients with PTSD (PTSD symptoms, PTSD Checklist)	Met
Nc1nc2ncc(CNc3ccc(C(=O)N[C@@H](CCC(=O)O)C(=O)O)cc3)nc2c(=O)[nH]1	VA patients with PTSD (PTSD symptoms, PTSD Checklist)	Not met
COC(=O)N[C@H](C(=O)N1CCC[C@H]1c1nc2cc(F)c([C@H]3CC[C@H](c4cc5[nH]c([C@@H]6CCCN6C(=O)[C@@H](NC(=O)OC)[C@@H](C)OC)nc5cc4F)N3c3cc(F)c(N4CCC(c5ccc(F)cc5)CC4)c(F)c3)cc2[nH]1)[C@@H](C)OC	VA patients with PTSD (PTSD symptoms, PTSD Checklist)	Met
CN1CCCC1c1cccnc1 (stereo not shown)	VA patients with PTSD (PTSD symptoms, PTSD Checklist)	Not met
CNCC[C@@H](Oc1ccccc1C)c1ccccc1	VA patients with PTSD (PTSD symptoms, PTSD Checklist)	Met
Cc1ncc(C[n+]2csc(CCO)c2C)c(N)n1	VA patients with PTSD (PTSD symptoms, PTSD Checklist)	Met

Now look at this entry.
**Q:** Quick check: EXP = Expected Cases of `O=c1n(CCCN2CCN(c3cccc(Cl)c3)CC2)nc2ccccn12` under 400?
**A:** Not met

====

# System: VA patients with PTSD (PTSD symptoms, PTSD Checklist)
# protocol.text: TreeScan nested case-control study of medications associated with PTSD symptom improvement (PTSD Checklist) in VA records
# Assay type: in vivo, human
# measurement.setup: baseline PCL score of 38 or higher and PTSD diagnosis within 30 days
endpoint.name: EXP = Expected Cases
Please give the numeric answer without any surrounding text.

compound	EXP = Expected Cases
CN1CCCC1c1cccnc1 (stereo not drawn) [Nicotine]	1736
COC(=O)N[C@H](C(=O)N1CCC[C@H]1c1nc2cc(F)c([C@H]3CC[C@H](c4cc5[nH]c([C@@H]6CCCN6C(=O)[C@@H](NC(=O)OC)[C@@H](C)OC)nc5cc4F)N3c3cc(F)c(N4CCC(c5ccc(F)cc5)CC4)c(F)c3)cc2[nH]1)[C@@H](C)OC [Pibrentasvir, pibrentasvir]	14
COC[C@H]1C[C@@H](c2ncc(-c3ccc4c(c3)COc3cc5c(ccc6[nH]c([C@@H]7CC[C@H](C)N7C(=O)[C@@H](NC(=O)OC)C(C)C)nc65)cc3-4)[nH]2)N(C(=O)[C@H](NC(=O)OC)c2ccccc2)C1 [Velpatasvir, velpatasvir]	10
Cc1ncc(C[n+]2csc(CCO)c2C)c(N)n1 [Thiamine]	304
CN(C)CCCC1(c2ccc(F)cc2)OCc2cc(C#N)ccc21 (stereo not drawn) [Citalopram]	1202
O=c1n(CCCN2CCN(c3cccc(Cl)c3)CC2)nc2ccccn12 [Trazodone]	3396

**Q:** Consider the compound COc1ccc2[nH]cc(CCNC(C)=O)c2c1 [Melatonin] and give its recorded EXP = Expected Cases.
**A:** 1033

**Q:** Consider the compound CNCC[C@@H](Oc1ccccc1C)c1ccccc1 [Atomoxetine] and give its recorded EXP = Expected Cases.
**A:** 65

**Q:** Consider the compound Nc1nc2ncc(CNc3ccc(C(=O)N[C@@H](CCC(=O)O)C(=O)O)cc3)nc2c(=O)[nH]1 [Folic Acid] and give its recorded EXP = Expected Cases.
**A:** 391
